Where these numbers come from: PubChem BioAssay (NCI)

# System: UO-31 renal
# TEST: NCI tumour cell line growth inhibition, 48 h
ENDPOINT_NAME: TGI

Q. # lookup: TGI of Cn1c(Sc2ccc(-c3cccnc3)n2C)ccc1-c1cccnc1
A. 33.4 µM

Q. For NC1=CN(Cc2ccccc2)C2=N/C(=C\c3ccccc3)C(=O)N12 , what is its reported TGI?
A. > 100 µM

Q. Bench note: what TGI did CN(C)CCNC(=O)Cn1ccc(=O)c2ccc([N+](=O)[O-])cc21 show?
A. > 100 µM

Q. Recorded TGI of NCCCCN(CCCN)Cc1ccccc1 , please.
A. > 100 µM

Q. What does the record list as TGI for N#Cc1c(N)c2c(c(-c3ccccc3)c1-c1ccccc1)C(=O)N(NC(=O)c1ccccc1)C2=O ?
A. > 100 µM

Q. Query: TGI; subject: O=C(Nc1sccc1S(=O)(=O)c1ccc(Cl)cc1)C(F)(F)F
A. > 100 µM

Q. So what does the record say about TGI for Cc1cc(=O)oc2c1cc(OCC(=O)OCCN1CCCCC1)c1occ(C)c12 ?
A. > 100 µM

Q. Sample CC(C)(C)CC(C)(C)N=C(N)NO — what was its TGI?
A. > 80.2 µM

Q. Fill blank: measured TGI of the compound CC(C)[Si](OC1=C(C(=O)N(C)c2ccccc2Cl)CCCC1)(C(C)C)C(C)C is ____.
A. 27.6 µM

Q. Bench note: what TGI did CC(CO)(CO)Nc1ncnc2ccccc12 show?
A. > 100 µM

Q. Which TGI value is on record for CCCNC(C#N)c1ccc(OCCCCCCCCCCOc2ccc(C(C#N)NCCC)cc2)cc1 (configuration not stated) ?
A. > 100 µM

Q. Record request: TGI value, item CCOC(=O)c1ccc(Nc2sc(C(=O)c3cccc([N+](=O)[O-])c3)c(N)c2C#N)cc1
A. 20 µM

Q. Fill in: TGI of CNNC(=N\S(=O)(=O)c1cc(C(=O)Nc2ccc(Cl)cc2)c(Cl)cc1SCc1ccccc1)/N=C/c1ccc([N+](=O)[O-])s1 is ___
A. > 100 µM

Q. Would you kindly share the measured TGI for COc1c(NC(=O)CC(C)=O)[c]([Hg][O]C(C)=O)c(OC)c(Cl)[c]1[Hg][O]C(C)=O ?
A. 29.7 µM

Q. Reported TGI for Cc1ccc(N=Nc2c(N)nn(-c3ccccc3)c2N)cc1 : what is it?
A. > 100 µM

Q. # get_value(readout='TGI', item= N#CCN1CCOCCOCCN(CC#N)CCOCCOCC1 )
A. > 100 µM

Q. Using the record for COc1c(Cl)cc(S(=O)O)cc1Cl , report its TGI.
A. > 100 µM

Q. Endpoint output: TGI of Cc1cc(S(=O)(=O)NC2=NC(c3ccccc3)c3ccccc3N2)c(S)cc1Cl (configuration not stated) . Value?
A. 46.5 µM

Q. What value of TGI has been reported for the following compound? COc1ccc(/C=C2\SC(c3ccc(OC)cc3)N(NC(=O)Cc3ccccc3)C2=O)cc1 (configuration not stated)
A. > 100 µM

Q. Please report the recorded TGI for O=C1[C@@H]2C3SC(c4ccccc43)[C@@H]2C(=O)N1c1ccccc1 .
A. > 100 µM

Q. Name the reported TGI value associated with the compound COc1ccc2oc(=O)c3c(c2c1C)OC(C)(C)C=C3
A. > 100 µM

Q. Given the entry CCC[CH2][Ge]([CH2]CCC)([CH2]CCC)[O]C(=O)C(OC)c1ccccc1 (configuration not stated) , report its measured TGI.
A. > 100 µM

----------
# Test system: MDA-MB-435
# TEST: NCI tumour cell line growth inhibition, 48 h
Provide the reported log10 of TGI of each item.
Friendly reminder: values = log10 of TGI, unit µM.

Q. Give the measured log10 of TGI of COc1ccc([C@H]2C=C(c3cc(F)c(Cl)cc3Cl)NC(=S)N2)cc1 .
A. 1.75

Q. Could you share which log10 of TGI value was measured for O=C(OCC1OC(OC(=O)c2cc(O)c(O)c(OC(=O)c3cc(O)c(O)c(O)c3)c2)C(OC(=O)c2cc(O)c(O)c(OC(=O)c3cc(O)c(O)c(O)c3)c2)C(OC(=O)c2cc(O)c(O)c(OC(=O)c3cc(O)c(O)c(O)c3)c2)C1OC(=O)c1cc(O)c(O)c(OC(=O)c2cc(O)c(O)c(O)c2)c1)c1cc(O)c(O)c(OC(=O)c2cc(O)c(O)c(O)c2)c1 (centres undefined) ?
A. 1.48

Q. Quick one: log10 of TGI for COc1cc(Cn2ccc3c2-c2oncc2CC3)cc(OC)c1 ?
A. 0.61

Q. Name the reported log10 of TGI value associated with the molecule O=c1cc(-c2ccccc2)oc2ccc(-c3ccc4oc(-c5ccccc5)cc(=O)c4c3)cc12
A. 1.55

Q. Query (molecule): CC#Cc1cc2c(cc1O)CC[C@@H]1[C@@H]2CC[C@]2(C)[C@@H](O)CC[C@@H]12 ; field requested: log10 of TGI
A. -0.09

Q. So what does the record say about log10 of TGI for Cn1c(Sc2ccc(-c3cccnc3)n2C)ccc1-c1cccnc1 ?
A. 1.46

Q. For the molecule shown here, CN(C)CCCNc1ccnc2cc([N+](=O)[O-])ccc12 , give the reported log10 of TGI.
A. 1.50

Q. Which value of log10 of TGI has been reported for Nc1ccc2cc3[nH]c4cc(N)ccc4c3nc2c1 in the records?
A. 0.09

Q. Item CCCN(CCC)c1cc2c(cc1F)c(=O)c(C(=O)O)cn2-c1ccc(N2CCN(C)CC2)cn1 has what recorded log10 of TGI?
A. 1.59

Q. For the molecule CC(C)(C)OC(=O)NC(Cc1ccc(OCc2ccccc2)cn1)C(=O)NCc1ccccc1 (centres undefined) , what log10 of TGI is on record?
A. 1.68

Q. Give the measured log10 of TGI of CCO/C=N/C1=C(C#N)C(c2ccc(Cl)cc2)c2c(-c3ccccc3)nn(-c3ccccc3)c2O1 (centres undefined) .
A. 1.55

Q. Reported log10 of TGI, molecule COc1ccc2[nH]c(=O)c(/C=C/C(=O)/C=C/c3ccc(O)c(OC)c3)cc2c1 : ____
A. 0.11

Q. Requested read-out: log10 of TGI. Entry: O=C(/C=C\c1ccccc1)Oc1ccc(/C=C2\CCCCC2=O)cc1
A. 1.93

Q. # input molecule: COc1cc2nc(N3CCCC3)nc(Nc3ccccc3)c2cc1OC ; wanted: its log10 of TGI
A. 0.49

Q. Any idea what its log10 of TGI is? The molecule is COc1ccc2c(c1)CC[C@@H]1[C@@H]2CC[C@]2(C)C(=O)/C(=C/c3ccncc3)C[C@@H]12
A. 1.97

Q. What does the record list as log10 of TGI for CN1CCN(Cc2ccc(NC(=O)c3nc4ccc5[nH]ncc5c4c4c3CCC4)cc2C(F)(F)F)CC1 ?
A. 0.23

Q. Which log10 of TGI value is on record for CC1(C)N=C(N)N=C(N)N1c1cccc(CCCCc2ccccc2)c1 ?
A. 1.08

Q. Requested read-out: log10 of TGI. Entry: N#CSCc1c(Cl)cccc1Cl
A. 0.75

Q. # query: log10 of TGI of entry ICCC(c1ccccc1)(c1ccccc1)c1ccccc1
A. 0.83

Q. So what's the measured log10 of TGI for this one? O=Cc1ccc(Oc2c3ccccc3nc3occc23)cc1
A. 1.39

----------
Exercise: state measured TGI for each of the molecules provided.
# System: HCT-116 colon
# TEST: NCI tumour cell line growth inhibition, 48 h
Where a SMILES comes first, the peptide text is derived from it. [ ]: non-standard residue; d: D form. NMeY = CN[C@@H](Cc1ccc(O)cc1)C(=O)O; dNMeF = CN[C@H](Cc1ccccc1)C(=O)O; Sar = CNCC(=O)O
Number only, in µM; omit the unit.

Q. What value of TGI on HCT-116 colon does CCC[CH2][Sn]([CH2]CCC)([O]C(=O)c1cc(OC)c(OC)cc1OC)[O]C(=O)c1cc(OC)c(OC)cc1OC have?
A. 2.85

Q. What is its TGI for HCT-116 colon? Entry: CC[C@H](C)[C@@H]1NC(=O)[C@H](Cc2ccc(O)cc2)N(C)C(=O)[C@H](Cc2ccccc2)NC(=O)CN(C)C(=O)[C@@H]2CCCN2C(=O)[C@@H](Cc2ccccc2)N(C)C(=O)[C@H](CC(C)C)NC1=O (cyclo(F[NMeY]IL[dNMeF]P[Sar]))
A. 10.5

Q. Hello, I am looking for reported TGI with HCT-116 colon for COc1cc(Cn2ccc3c2-c2oncc2CC3)cc(OC)c1 . Could you help?
A. 26.6

----------
# Test system: SK-MEL-28 melanoma
# TEST: NCI tumour cell line growth inhibition, 48 h; in the data active means GI50 below about 0.43 µM; inactive means the rest
Can you answer with just one of these options? t = active, f = inactive

Q. Assay outcome for CC(=O)O[C@H]1CC[C@]2(C)[C@H]3CC=C4[C@@H]5CC(C)(C)CC[C@]5(C(=O)NCCNCCN)CC[C@@]4(C)[C@]3(C)CC[C@H]2C1(C)C : what was it?
A. f

Q. Identify the outcome logged in this assay for the molecule shown: COc1ccc2[nH]c(=O)c(/C=C/C(=O)/C=C/c3ccc(O)c(OC)c3)cc2c1
A. f

Q. Outcome logged for CN(C)C(=O)c1cc2cnc(Nc3ccc(-c4csc5c(=O)cc(N6CCNCC6)oc45)cc3)nc2n1C1CCCC1 in this assay:
A. f

Q. Status in this test for Cc1ncc(C(=O)Nc2ccc(CN3CCN(C)CC3)c(C(F)(F)F)c2)cc1C#Cc1cnc(N)c2ncccc12 ?
A. t
